Hello, the source for this data is patent US9034921B2, in case you need it.

Target: human SGLT2 (Homo sapiens (Human), UniProt P31639)
Sequence (P31639 whole entry): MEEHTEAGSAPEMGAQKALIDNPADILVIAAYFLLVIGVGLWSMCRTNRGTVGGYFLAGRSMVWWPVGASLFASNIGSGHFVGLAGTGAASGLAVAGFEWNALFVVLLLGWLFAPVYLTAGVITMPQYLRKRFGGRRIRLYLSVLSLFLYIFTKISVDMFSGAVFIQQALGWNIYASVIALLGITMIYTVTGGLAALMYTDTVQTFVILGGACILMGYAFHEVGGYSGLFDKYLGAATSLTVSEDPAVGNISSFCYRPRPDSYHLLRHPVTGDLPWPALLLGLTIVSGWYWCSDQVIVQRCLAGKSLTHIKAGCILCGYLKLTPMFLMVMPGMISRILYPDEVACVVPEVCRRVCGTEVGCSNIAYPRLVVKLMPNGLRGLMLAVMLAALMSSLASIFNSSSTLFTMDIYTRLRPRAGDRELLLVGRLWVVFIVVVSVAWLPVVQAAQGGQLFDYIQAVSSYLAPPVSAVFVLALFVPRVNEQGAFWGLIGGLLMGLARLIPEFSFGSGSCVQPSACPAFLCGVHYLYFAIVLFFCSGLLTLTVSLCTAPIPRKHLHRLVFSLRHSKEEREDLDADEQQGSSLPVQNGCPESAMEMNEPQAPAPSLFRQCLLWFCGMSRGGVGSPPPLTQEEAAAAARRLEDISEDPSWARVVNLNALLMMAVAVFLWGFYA
Test: Inhibitory effects on human SGLT2 activities (14C-AMG uptake, sodium-dependent glucose transport assay)
Settings: CHO cells stably expressing hSGLT2, 37° C., 2 h, single determinations
Quantity: pIC50
Note on units: pIC50 is unitless, being -log10 of a concentration expressed in mol/L.

{"Structure as smiles": "COc1cc([C@@H]2O[C@H](CO)[C@@H](O)[C@H](O)[C@H]2O)cc(Cc2ccc3c(c2)OCCO3)c1Cl", "Target or system": "human SGLT2 (Homo sapiens (Human), UniProt P31639)", "Observed result": 8.57}
{"Structure as smiles": "OC[C@H]1O[C@@H](c2cc(Cc3ccc(C(F)(F)F)cc3)c(Cl)c3c2CCO3)[C@H](O)[C@@H](O)[C@@H]1O", "Target or system": "human SGLT2 (Homo sapiens (Human), UniProt P31639)", "Observed result": 8.90}

Would you kindly look at the next entry?
Exercise: Requested field: pIC50. Item: CC1(C)COc2cc(Cc3cc([C@@H]4O[C@H](CO)[C@@H](O)[C@H](O)[C@H]4O)ccc3Cl)ccc2O1
Key: 8.24
